Origin of measurements: PubChem BioAssay (NCI)

Tested on: CCRF-CEM leukemia
experimentalProtocol: NCI tumour cell line growth inhibition, 48 h
readoutName: TGI (µM)
Give just the number in µM; leave the unit off.

Examples with their reported TGI follow.
Clc1cc(Cl)c(Cl)c(-c2nc(-c3cccnc3)cs2)c1 :: 42
O=S(=O)(/N=C(\NO)Nc1ccc(Cl)cc1)c1ccc(S(=O)(=O)c2ccccc2)s1 :: 51.6
COc1ccc(/C(C)=C(\c2ccc(Cl)cc2)c2ccc(OCCN3CCCC3)cc2)cc1F :: 10.7

Shift focus to the following entry.
Data request: Lookup: TGI / CCRF-CEM leukemia / N#CC(=S)Nc1ccc(Cl)c(Cl)c1
Data returned: 15.2
